Quick reference for raw data 2 among some compounds
Target: UniProt:P10636
Assay procedure: MCE Phenols Library screening, tau biosensor cell seeding assay (AvZ)
Format: cell-based
Measurement parameters: puncta, replicate 2
Measure: raw data 2

COc1cc(-c2coc3cc(O[C@@H]4O[C@H](CO)[C@@H](O)[C@H](O)[C@H]4O)c(OC)c(O)c3c2=O)ccc1O [Iristectorin B] | 3295.67
CCCOC(=O)c1ccc(O)cc1 [Propylparaben] | 22304.9
COC(=O)c1cc(O)c(O)c(O)c1 [Methyl gallate] | 3211.88
O=C(/C=C/c1ccc(O)c(O)c1/C=C/c1ccc(O)c(O)c1)O[C@H](Cc1ccc(O)c(O)c1)C(=O)O [Salvianolic acid A] | 105.765

* * *

Target: UniProt P10636
Assay procedure: MCE Phenols Library screening, tau biosensor cell seeding assay (AvZ)
Format: cell-based
Measurement parameters: average of raw data 1 and 2
Quick reference for av puncta among some compounds
Measure: av puncta

COc1cc2oc(-c3ccccc3)cc(=O)c2c(O)c1O [Negletein] | 10644.7
NCCc1ccc(O)cc1 [Tyramine] | 20147.8
O.O.O=c1c(O)c(-c2ccc(O)c(O)c2)oc2cc(O)cc(O)c12 [Quercetin (dihydrate)] | 3988.66
COc1ccc(C(C)=O)c(O)c1O [2,3-Dihydroxy-4-methoxyacetophenone] | 21205.2
COc1cc(-c2cc(=O)c3c(O)c(OC)c(O)cc3o2)cc(O)c1OC | 18635
COc1cc(O)c2c(=O)cc(-c3ccccc3)oc2c1 [Tectochrysin] | 20458.8
Oc1cc(O)cc(/C=C/c2c(O)cccc2O)c1 [Gnetol] | 1372.64
O=Cc1c[nH]c2cccc(O)c12 [4-Hydroxy-1H-indole-3-carbaldehyde] | 22163.8
COc1cc2c(cc1O)CC[C@@H]1[C@@H]2CC[C@]2(C)[C@@H](O)CC[C@@H]12 [2-Methoxyestradiol] | 33178.1

* * *

Target: tau (Homo sapiens, UniProt P10636)
Sequence (P10636 623-695 limits assumed): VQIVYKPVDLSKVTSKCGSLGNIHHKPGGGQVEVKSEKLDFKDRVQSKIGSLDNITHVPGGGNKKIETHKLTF
Assay procedure: MCE Phenols Library screening, tau biosensor cell seeding assay (AvZ)
Format: cell-based
Measurement parameters: puncta, replicate 2
Measure: raw data 2

O=c1c(O[C@@H]2O[C@H](CO)[C@@H](O)[C@H](O)[C@H]2O)c(-c2ccc(O)cc2)oc2cc(O)cc(O)c12 | 5956.82
COc1cc(O)c(C(C)=O)c(OC)c1 | 22131.8
O=C(O)C[C@H](C(=O)O)[C@H]1c2c(cc(O)c(O)c2O)C(=O)O[C@@H]1C(=O)O | 230.797
CC(=O)OCCc1ccc(O)c(O)c1 [Hydroxytyrosol acetate] | 1565.31
O=c1cc(-c2ccc(O)cc2)oc2cc(O[C@@H]3O[C@H](CO)[C@@H](O)[C@H](O)[C@H]3O[C@@H]3OC[C@](O)(CO)[C@H]3O)cc(O)c12 | 15263.6
O=c1c(O)c(-c2ccc(O)cc2O)oc2cc(O)cc(O)c12 | 1176.23
O=c1cc(-c2ccc(O)cc2)oc2cc(O)c([C@@H]3O[C@H](CO)[C@@H](O)[C@H](O)[C@H]3O[C@@H]3O[C@H](CO)[C@@H](O)[C@H](O)[C@H]3O)c(O)c12 [Meloside A] | 3384.65

* * *

Quick reference for raw data 1 among some molecules
Target: UniProt:P10636
Assay procedure: MCE Phenols Library screening, tau biosensor cell seeding assay (AvZ)
Type: cell-based
Measurement parameters: puncta, replicate 1
Measure: raw data 1

C[C@@H]1O[C@@H](O[C@@H]2[C@@H](O)[C@H](OCCc3ccc(O)c(O)c3)O[C@H](CO)[C@H]2OC(=O)/C=C/c2ccc(O)c(O)c2)[C@H](O)[C@H](O)[C@H]1O [Verbascoside] | 23255.9
C[C@@H]1O[C@@H](Oc2cc(O)c3c(=O)c(O)c(-c4ccc(O)cc4)oc3c2O)[C@H](O)[C@H](O)[C@H]1O | 12258.1
O=C(/C=C/c1ccc(O)c(O)c1)O[C@@H]1C[C@@](O)(C(=O)O)C[C@@H](O)[C@@H]1O | 17326.7
COc1cc2c(cc1O)-c1cc3ccc(OC)c(OC)c3c[n+]1CC2 | 34211.5

* * *

Quick reference for Z repl 1 among some molecules
Target: tau (Homo sapiens, UniProt P10636)
Assay procedure: MCE Phenols Library screening, tau biosensor cell seeding assay (AvZ)
Format: cell-based
Measurement parameters: Z score, replicate 1
Measure: Z repl 1

O=C(O)c1ccc(O)cc1O [2,4-Dihydroxybenzoic acid] | 0.635
COc1ccc(-c2cc(=O)c3c(O)c(OC)c(O[C@@H]4O[C@H](CO[C@@H]5O[C@@H](C)[C@H](O)[C@@H](O)[C@H]5O)[C@@H](O)[C@H](O)[C@H]4O)cc3o2)cc1 | 0.677
COc1cc([C@@H]2OC[C@@H]3[C@H]2CO[C@H]3c2cc(OC)c(O[C@@H]3O[C@H](CO)[C@@H](O)[C@H](O)[C@H]3O[C@@H]3OC[C@](O)(CO)[C@H]3O)c(OC)c2)cc(OC)c1O | 0.189
O=c1cc(-c2ccc(O)cc2)oc2cccc(O)c12 [4',5-Dihydroxyflavone] | 0.443
COc1cc(CC(C)C(C)Cc2ccc(O)c(OC)c2)ccc1O (centres unmarked) [Dihydroguaiaretic acid] | -0.958
COc1ccc(-c2oc3c(CC=C(C)C)c(O)cc(O)c3c(=O)c2O)cc1 | 0.42
COc1cc(O)cc(/C=C/c2ccc(O)cc2)c1 | 0.091
O=C(O)Cc1cc(I)c(Oc2cc(I)c(O)c(I)c2)c(I)c1 | 0.158
Cl.Oc1ccc(CC2NCCc3cc(O)c(O)cc32)cc1 (centres unmarked) [Higenamine (hydrochloride)] | -0.238
O=c1c(O[C@@H]2O[C@H](CO)[C@H](O)[C@H](O)[C@H]2O)c(-c2ccc(O)c(O)c2)oc2cc(O)cc(O)c12 [Hyperoside] | -0.253
COc1cc2c(O)c3c(c(-c4ccc5c(c4)OCO5)c2cc1OC)C(=O)OC3 | -0.334
COc1cc(O)c2c(=O)c(-c3ccc(O)cc3)coc2c1 | 3.008
O=C(OC[C@H]1O[C@@H](OC(=O)c2cc(O)c(O)c(OC(=O)c3cc(O)c(O)c(O)c3)c2)[C@H](OC(=O)c2cc(O)c(O)c(OC(=O)c3cc(O)c(O)c(O)c3)c2)[C@@H](OC(=O)c2cc(O)c(O)c(OC(=O)c3cc(O)c(O)c(O)c3)c2)[C@@H]1OC(=O)c1cc(O)c(O)c(OC(=O)c2cc(O)c(O)c(O)c2)c1)c1cc(O)c(O)c(OC(=O)c2cc(O)c(O)c(O)c2)c1 | -2.109
C=C(C)[C@H](CC=C(C)C)Cc1c(O)cc(OC)c2c1O[C@H](c1ccc(O)cc1O)[C@@H](O)C2=O | 0.564
Cc1cc(=O)oc2cc(O)c(O)cc12 | 0.302
COc1c2ccoc2nc2c(O)cccc12 | 0.29
C[C@@H]1O[C@@H](O[C@@H]2[C@@H](O)[C@H](OCCc3ccc(O)c(O)c3)O[C@H](CO)[C@H]2OC(=O)/C=C/c2ccc(O)c(O)c2)[C@H](O)[C@H](O)[C@H]1O [Verbascoside] | -0.258
O=C(O)c1cccc(O)c1O | -0.028
O=c1oc2cc(O)ccc2c2cc(O)c(O)cc12 | -0.755
C[C@@H]1O[C@@H](Oc2c(-c3ccc(O)c(O)c3)oc3cc(O)cc(O)c3c2=O)[C@H](O)[C@H](O)[C@H]1O | -0.089
O=C(/C=C/c1ccc(O)cc1)NCCc1c[nH]c2ccc(O)cc12 | 0.332
OC[C@H]1O[C@@H](Oc2cc3c(O)cc(O)cc3[o+]c2-c2ccc(O)c(O)c2)[C@H](O)[C@@H](O)[C@H]1O.[Cl-] [Cyanidin-3-O-galactoside (chloride)] | -1.814
COc1cc(O)c2c(c1)O[C@H](c1cc(O)cc(O)c1)CC2=O | -0.753
COc1ccc(-c2cc(=O)c3c(O)c(OC)c(O)cc3o2)cc1OC | 0.583
COc1cc(C)ccc1O | 0.313
CC(C)=CCc1cc(C(=O)/C=C/c2ccc(O)cc2)c(O)cc1O | -0.876
COc1cccc(OC)c1C(=O)OCc1cc(O)ccc1O[C@@H]1O[C@H](CO)[C@@H](O)[C@H](O)[C@H]1O [Curculigoside] | -0.772
O=C1c2cc(CO)cc(O)c2C(=O)c2c(O[C@@H]3O[C@H](CO)[C@@H](O)[C@H](O)[C@H]3O)cccc21 [Aloe-emodin-8-O-?-D-glucopyranoside] | -0.712
COc1c(O[C@@H]2O[C@H](C(=O)O)[C@@H](O)[C@H](O)[C@H]2O)cc2oc(-c3ccccc3)cc(=O)c2c1O [Oroxylin A-7-O-glucuronide] | -0.296

* * *

Quick reference for Z repl 1 among some compounds
Target: UniProt:P10636
Assay procedure: MCE Phenols Library screening, tau biosensor cell seeding assay (AvZ)
Type: cell-based
Measurement parameters: Z score, replicate 1
Measure: Z repl 1

O=C1c2c(O)cccc2C([C@@H]2O[C@H](CO)[C@@H](O)[C@H](O)[C@H]2O)c2cc(CO)cc(O)c21 (some centres unmarked) [Aloin(mixture of A&B)] | -0.336
O=Cc1cccc(O)c1 [3-Hydroxybenzaldehyde] | 0.08
Cl.NCC(O)c1ccc(O)cc1 (centres unmarked) [Octopamine (hydrochloride)] | -0.187
COc1cc(O)c2c(c1)O[C@H](c1ccc(O)cc1)CC2=O | 0.003
O=c1c(O[C@@H]2O[C@H](CO)[C@@H](O)[C@H](O)[C@H]2O[C@@H]2O[C@H](CO)[C@@H](O)[C@H](O)[C@H]2O)c(-c2ccc(O)c(O)c2)oc2cc(O)cc(O)c12 [Baimaside] | 1.152
COc1cc(/C=C/C(=O)OCC[N+](C)(C)C)cc(OC)c1O.N#C[S-] [Sinapine (thiocyanate)] | 0.104
CC(=O)Cc1cc(=O)c2c(C)cc(O)c([C@@H]3O[C@H](CO)[C@@H](O)[C@H](O)[C@H]3O)c2o1 | 0.457
O=c1c(O)c(-c2ccc(O)c(O)c2)oc2cc(O)ccc12 | -1.392
